Biological target: KRas^G12A (Homo sapiens, UniProt P01116, G12A)
Construct: […]; biotin (biotinylated)
Sequence (P01116 1-169 isoform P01116-2 G12A): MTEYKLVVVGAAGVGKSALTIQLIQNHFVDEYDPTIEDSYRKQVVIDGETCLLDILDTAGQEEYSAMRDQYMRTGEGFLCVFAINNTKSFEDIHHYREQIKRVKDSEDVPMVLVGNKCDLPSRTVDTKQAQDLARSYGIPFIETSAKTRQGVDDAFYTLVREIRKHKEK
Test: KRas binding assay (TR-FRET displacement of Cy5 labelled tracer)
measure_name: IC50 (µM)

compound="CCc1cccc2cccc(N3CCc4c(nc(OCC56CCCN5CCC6)nc4N4CCCCCC(S(C)(=O)=O)C4)C3)c12 (stereo not drawn)" measure_name=IC50 uom=µM assay_value=0.145
compound="CCc1cccc2cccc(N3CCc4c(nc(OCC56CCCN5CCC6)nc4N4CCCC(n5nccn5)C4)C3)c12 (stereo not drawn)" measure_name=IC50 uom=µM assay_value=1.18
compound=CCc1cccc2cccc(N3CCc4c(nc(OCC56CCCN5CCC6)nc4NCc4nc5ncccc5o4)C3)c12 measure_name=IC50 uom=µM assay_value=24.3
compound="CCc1cccc2cccc(N3CCc4c(nc(OCC56CCCN5CCC6)nc4N4CCC(O)C(CO)C4)C3)c12 (stereo not drawn)" measure_name=IC50 uom=µM assay_value=0.735
compound="CCc1cccc2cccc(N3CCc4c(nc(OCC56CCCN5CCC6)nc4N4CCCC(O)(C(F)(F)F)C4)C3)c12 (stereo not drawn)" measure_name=IC50 uom=µM assay_value=0.595
compound=CCc1cccc2cccc(N3CCc4c(nc(OCC56CCCN5CCC6)nc4N(C)CC(C)(C)O)C3)c12 measure_name=IC50 uom=µM assay_value=0.464
compound="CCc1cccc2cccc(N3CCc4c(nc(OCC56CCCN5CCC6)nc4N4CCCC(N5CC(C)CS5(=O)=O)C4)C3)c12 (stereo not drawn)" measure_name=IC50 uom=µM assay_value=0.206

P: CCc1cccc2cccc(N3CCc4c(nc(OCC56CCCN5CCC6)nc4N4CCCC(c5ncn[nH]5)C4)C3)c12 (stereo not drawn)
Q: CCc1cccc2cccc(N3CCc4c(nc(OCC56CCCN5CCC6)nc4NC4CC5CC5C4)C3)c12 (stereo not drawn)
Data request: Endpoint returns the identifier whose IC50 is numerically larger, either P or Q . Kindly state the label of the option you pick.
Data returned: Q
(Q: 27.9 µM, P: 0.548 µM)

====

Molecular target: KRas^G12S (Homo sapiens, UniProt P01116, G12S)
Construct: […]; biotin (biotinylated)
Sequence (P01116 1-169 isoform P01116-2 G12S): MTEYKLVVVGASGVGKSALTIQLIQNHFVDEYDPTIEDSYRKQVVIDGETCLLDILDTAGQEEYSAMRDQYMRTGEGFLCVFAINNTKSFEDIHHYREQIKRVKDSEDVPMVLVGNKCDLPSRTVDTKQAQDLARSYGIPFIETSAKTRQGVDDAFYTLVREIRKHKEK
Assay: KRas binding assay (TR-FRET displacement of Cy5 labelled tracer)
measure_name: IC50 (nM)

Please review the entries below; each comes with its answer.
compound="CCc1cccc2cccc(N3CCc4c(nc(OCC56CCCN5CCC6)nc4N4CCCC(c5nnc(CO)n5C)C4)C3)c12 (stereo not drawn)" uom=nM assay_value=5130
compound="CCc1cccc2cccc(N3CCc4c(nc(OCC56CCCN5CCC6)nc4N4CCC(O)C(CO)CC4)C3)c12 (stereo not drawn)" uom=nM assay_value=70
compound=CCc1cccc2cccc(N3CCc4c(nc(OCC56CCCN5CCC6)nc4N4CCCN(C(N)=O)CC4)C3)c12 uom=nM assay_value=953
compound="CCc1cccc2cccc(N3CCc4c(nc(OCC56CCCN5CCC6)nc4N4CCCC(c5nc(C)c(C)[nH]5)C4)C3)c12 (stereo not drawn)" uom=nM assay_value=2480
compound="CCc1cccc2cccc(N3CCc4c(nc(OCC56CCCN5CCC6)nc4N4CC(O)C(O)C(O)C4)C3)c12 (stereo not drawn)" uom=nM assay_value=383

I: CCc1cccc2cccc(N3CCc4c(nc(OCC56CCCN5CCC6)nc4N4C[C@@H](C)C[C@@H](O)C4)C3)c12
II: CCc1cccc2cccc(N3CCc4c(nc(OCC56CCCN5CCC6)nc4N(C)Cc4c[nH]nn4)C3)c12
Data request: Endpoint returns the identifier whose IC50 is numerically larger, either I or II . Kindly state the label of the option you pick.
Data returned: II

I: CCc1cccc2cccc(N3CCc4c(nc(OCC56CCCN5CCC6)nc4N4CC5CNC(=O)C5C4)C3)c12 (stereo not drawn)
II: CCc1cccc2cccc(N3CCc4c(nc(OCC56CCCN5CCC6)nc4N4CCCC(c5nc(N)n(C)n5)C4)C3)c12 (stereo not drawn)
Data request: Returns the identifier with the smallest measured IC50 among I and II . Kindly state the label of the option you pick.
Data returned: II
